Test system: BRCA-1 silenced HeLa cells (HeLa shBRCA1-GFP)
measurement.notes: Proliferation assay in BRCA-1 silenced HeLa cells
Assay type: cell-based
condition.info: Homo sapiens; BRCA1 silenced HeLa cells, 168 hours; read-out: CC50 in the BRCA1 silenced HeLa cells
Counter-ions that a name gives are not always drawn.
result.type: CC50

Please review the following examples before continuing.
CCC(CC)N1CCN(C(=O)c2cc(Cc3n[nH]c(=O)c(C)c3C)ccc2F)CC1=O : < 50 nM
Cc1c(Cc2ccc(F)c(C(=O)N3CC(=O)N(c4cc(F)cc(F)c4)[C@H](C)C3)c2)n[nH]c(=O)c1C : < 50 nM
Cc1c(Cc2ccc(F)c(C(=O)N3CC(=O)N(C(c4ccccc4)C(F)F)C(C)C3)c2)n[nH]c(=O)c1C (stereo not shown) [Example 131, trifluoroacetate] : < 50 nM
Cc1c(Cc2ccc(F)c(C(=O)N3CCN(c4csc5ccccc45)C(=O)C3)c2)n[nH]c(=O)c1C [Example 62, trifluoroacetate] : 50 to 500 nM

Report CC50 for each item below.
1. Cc1c(Cc2ccc(F)c(C(=O)N3CCN(C4CCC4)C(=O)C3)c2)n[nH]c(=O)c1C [Example 57, trifluoroacetate]
2. Cc1c(Cc2ccc(F)c(C(=O)N3CCN(CC4(c5ccccc5)CCOCC4)C(=O)C3)c2)n[nH]c(=O)c1C [Example 56, trifluoroacetate]

Return:
1. 50 to 500 nM
2. < 5000 nM

* * *

Please respond with reported CC50 for every item in the list.
Tested on: BRCA-1 silenced HeLa cells (HeLa shBRCA1-GFP)
measurement.notes: Proliferation assay in BRCA-1 silenced HeLa cells
Type: cell-based
condition.info: Homo sapiens; BRCA1 silenced HeLa cells, 168 hours; read-out: CC50 in the BRCA1 silenced HeLa cells
Counter-ions that a name gives are not always drawn.

Please review the following examples before continuing.
Cc1c(Cc2ccc(F)c(C(=O)N3CCN(C(c4cccnc4)C(F)F)C(=O)C3)c2)n[nH]c(=O)c1C (stereo not drawn) [Example 96, trifluoroacetate] : < 5000 nM
Cc1c(Cc2ccc(F)c(C(=O)N3CCN([C@H](C)c4ccccc4)C(=O)C3)c2)n[nH]c(=O)c1C [Example 121, trifluoroacetate] : 50 to 500 nM
Cc1c(Cc2ccc(F)c(C(=O)N3CCN(C4CCCC4)C(=O)C3)c2)n[nH]c(=O)c1C : < 50 nM
Cc1c(Cc2ccc(F)c(C(=O)N3CCN(C45CC(C4)C5)C(=O)C3)c2)n[nH]c(=O)c1C [Example 52, trifluoroacetate] : 50 to 500 nM
Cc1c(Cc2ccc(F)c(C(=O)N3CC(=O)N(c4cc(Cl)ccc4F)[C@H](C)C3)c2)n[nH]c(=O)c1C : < 50 nM
Cc1c(Cc2ccc(F)c(C(=O)N3CCN(C4CCCC(c5ccccc5)C4)C(=O)C3)c2)n[nH]c(=O)c1C (stereo not drawn) [Example 66, trifluoroacetate] : 50 to 500 nM
Cc1c(Cc2ccc(F)c(C(=O)N3CC(=O)N4[C@@H](CCC[C@@H]4C)C3)c2)n[nH]c(=O)c1C (single isomer, unassigned) : < 50 nM
Cc1c(Cc2ccc(F)c(C(=O)N3CC(=O)N([C@@H]4CCOC4)[C@H](C)C3)c2)n[nH]c(=O)c1C : 50 to 500 nM

Report CC50 for each item below.
1. CCOCCN1CCN(C(=O)c2cc(Cc3n[nH]c(=O)c(C)c3C)ccc2F)CC1=O
2. Cc1c(Cc2ccc(F)c(C(=O)N3CCN(C4CCC(F)(F)C4)C(=O)C3)c2)n[nH]c(=O)c1C (stereo not drawn) [Example 49, trifluoroacetate]
3. Cc1c(Cc2ccc(F)c(C(=O)N3CCN(C4CCC(F)(F)CC4)C(=O)C3)c2)n[nH]c(=O)c1C [Example 48, trifluoroacetate]

Return:
< 5000 nM
< 50 nM
50 to 500 nM

* * *

System: BRCA-1 silenced HeLa cells (HeLa shBRCA1-GFP)
measurement.notes: Proliferation assay in BRCA-1 silenced HeLa cells
Assay type: cell-based
condition.info: Homo sapiens; BRCA1 silenced HeLa cells, 168 hours; read-out: CC50 in the BRCA1 silenced HeLa cells
Counter-ions that a name gives are not always drawn.
Please respond with reported CC50 for every item in the list.

Please review the following examples before continuing.
O=C(c1cc(Cc2cc(C(F)(F)C(F)(F)F)c(=O)[nH]n2)ccc1F)N1CCN(C2CCCC2)C(=O)C1 : 50 to 500 nM
Cc1c(Cc2ccc(F)c(C(=O)N3CCN(c4ccc(Cl)cc4)C(=O)C3)c2)n[nH]c(=O)c1C [Example 13, trifluoroacetate] : < 50 nM
Cc1c(Cc2ccc(F)c(C(=O)N3CC(=O)N([C@H]4CCOC4)[C@@H](C)C3)c2)n[nH]c(=O)c1C (single isomer, unassigned) : < 50 nM
CCC1CN(C(=O)c2cc(Cc3n[nH]c(=O)c(C)c3C)ccc2F)CC(=O)N1C1CCC1 (stereo not shown) : 50 to 500 nM
Cc1c(Cc2ccc(F)c(C(=O)N3CC(=O)N(c4ccc(C#N)cc4)[C@H](C)C3)c2)n[nH]c(=O)c1C : < 50 nM
Cc1c(Cc2ccc(F)c(C(=O)N3CCN(C4CCC(C)(C)CC4)C(=O)C3)c2)n[nH]c(=O)c1C [Example 50, trifluoroacetate] : < 50 nM

Enquiry: Data request, read-out CC50, for Cc1c(Cc2ccc(F)c(C(=O)N3CC(=O)N(C4CCCC4)C(CC(C)C)C3)c2)n[nH]c(=O)c1C (stereo not shown)
Return: < 5000 nM

* * *

target.entity: PARP-1 (Homo sapiens, UniProt P09874)
Construct: purchased Trevigen 4668-500-01
Sequence (P09874 whole entry): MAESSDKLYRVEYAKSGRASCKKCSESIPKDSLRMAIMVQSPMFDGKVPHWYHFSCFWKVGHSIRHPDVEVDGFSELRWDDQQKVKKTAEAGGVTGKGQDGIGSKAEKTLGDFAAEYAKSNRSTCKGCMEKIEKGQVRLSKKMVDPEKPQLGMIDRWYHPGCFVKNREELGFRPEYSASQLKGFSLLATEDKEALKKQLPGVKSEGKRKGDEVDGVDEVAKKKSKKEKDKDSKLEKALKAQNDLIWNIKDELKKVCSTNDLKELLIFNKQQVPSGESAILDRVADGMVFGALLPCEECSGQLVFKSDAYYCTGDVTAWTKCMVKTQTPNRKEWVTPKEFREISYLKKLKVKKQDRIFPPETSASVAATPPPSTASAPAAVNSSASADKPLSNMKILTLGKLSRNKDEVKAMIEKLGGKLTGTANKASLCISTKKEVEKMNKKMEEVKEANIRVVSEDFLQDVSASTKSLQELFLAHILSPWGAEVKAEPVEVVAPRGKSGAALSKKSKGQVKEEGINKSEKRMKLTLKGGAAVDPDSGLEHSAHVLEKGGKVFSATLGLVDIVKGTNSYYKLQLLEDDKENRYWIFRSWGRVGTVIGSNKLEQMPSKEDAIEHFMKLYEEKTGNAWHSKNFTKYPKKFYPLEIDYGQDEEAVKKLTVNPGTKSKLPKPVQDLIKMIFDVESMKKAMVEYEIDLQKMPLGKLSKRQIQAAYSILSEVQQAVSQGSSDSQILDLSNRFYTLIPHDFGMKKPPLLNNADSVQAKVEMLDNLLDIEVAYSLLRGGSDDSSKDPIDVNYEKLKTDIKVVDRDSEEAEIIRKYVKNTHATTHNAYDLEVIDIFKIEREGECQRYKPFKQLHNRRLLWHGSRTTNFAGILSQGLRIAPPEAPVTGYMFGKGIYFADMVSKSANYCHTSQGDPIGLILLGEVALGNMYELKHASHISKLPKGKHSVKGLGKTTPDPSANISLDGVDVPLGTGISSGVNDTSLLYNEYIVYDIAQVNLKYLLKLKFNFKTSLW
measurement.notes: PARP-1 SPA assay
Format: biochemical
Counter-ions that a name gives are not always drawn.
result.type: IC50

Please review the following examples before continuing.
Cc1c(Cc2ccc(F)c(C(=O)N3CC(=O)N4CCCCC4C3)c2)n[nH]c(=O)c1C (stereo not shown) [Example 32, trifluoroacetate] : 5 to 25 nM
CCN1CCN(C(=O)c2cc(Cc3n[nH]c(=O)c(C(F)(F)F)c3C)ccc2F)CC1=O : 5 to 25 nM
Cc1c(Cc2ccc(F)c(C(=O)N3CCCN(C4CCCCC4)C(=O)C3)c2)n[nH]c(=O)c1C [Example 34, trifluoroacetate] : 5 to 25 nM
Cc1c(Cc2ccc(F)c(C(=O)N3CCCN(C4CC4)C(=O)C3)c2)n[nH]c(=O)c1C : 25 to 150 nM
CC[C@H]1CN(C(=O)c2cc(Cc3n[nH]c(=O)c(C)c3C)ccc2F)CC(=O)N1C1CCC1 : 5 to 25 nM

Report IC50 for each item below.
1. Cc1c(Cc2ccc(F)c(C(=O)N3CCN(C(C)c4nc(C(C)C)no4)C(=O)C3)c2)n[nH]c(=O)c1C (stereo not shown) [Example 54, trifluoroacetate]
2. CCc1cc(Cc2ccc(F)c(C(=O)N3CCN([C@H]4CCCOC4)C(=O)C3)c2)n[nH]c1=O

Return:
["< 5 nM", "< 5 nM"]

* * *

Tested on: BRCA-1 silenced HeLa cells (HeLa shBRCA1-GFP)
measurement.notes: Proliferation assay in BRCA-1 silenced HeLa cells
Format: cell-based
condition.info: Homo sapiens; BRCA1 silenced HeLa cells, 168 hours; read-out: CC50 in the BRCA1 silenced HeLa cells
Structures can show the parent of a compound that is named as a salt.
result.type: CC50

Please review the following examples before continuing.
Cc1c(Cc2ccc(F)c(C(=O)N3CCN([C@@H]4CCCC[C@H]4c4ccccc4)C(=O)C3)c2)n[nH]c(=O)c1C [Example 67, trifluoroacetate] : 50 to 500 nM
Cc1c(Cc2ccc(F)c(C(=O)N3CC(=O)N([C@@H]4CCOC4)[C@@H](C)C3)c2)n[nH]c(=O)c1C [Example 157] : 50 to 500 nM
Cc1c(Cc2ccc(F)c(C(=O)N3CCN([C@H](C)C(F)(F)F)C(=O)C3)c2)n[nH]c(=O)c1C [Example 200] : < 50 nM
Cc1c(Cc2cc(C(=O)N3CCN(C4CCCC4)C(=O)C3)c(F)cc2Br)n[nH]c(=O)c1C [Example 83] : < 50 nM
Cc1c(Cc2ccc(F)c(C(=O)N3CC(=O)N(c4ccc(F)cc4)C(C)C3)c2)n[nH]c(=O)c1C (racemic) [Example 79, trifluoroacetate] : < 50 nM

Turning now to a further record.
Enquiry: Data request, read-out CC50, for CCc1c(Cc2ccc(F)c(C(=O)N3CCN(C4CCCCC4)C(=O)C3)c2)n[nH]c(=O)c1C(F)(F)F [Example 39, trifluoroacetate]
Return: < 50 nM

* * *

Test system: BRCA-1 silenced HeLa cells (HeLa shBRCA1-GFP)
measurement.notes: Proliferation assay in BRCA-1 silenced HeLa cells
Type: cell-based
condition.info: Homo sapiens; BRCA1 silenced HeLa cells, 168 hours; read-out: CC50 in the BRCA1 silenced HeLa cells
Where a name gives a salt, the structure may show the parent alone.
Please respond with reported CC50 for every item in the list.

Please review the following examples before continuing.
Cc1c(Cc2ccc(F)c(C(=O)N3CCN(c4ccccc4C(F)(F)F)C(=O)C3)c2)n[nH]c(=O)c1C [Example 15, trifluoroacetate] : < 50 nM
Cc1c(Cc2ccc(F)c(C(=O)N3CCN([C@H]4CC[C@@H](F)C4)C(=O)C3)c2)n[nH]c(=O)c1C (relative stereo) [Example 80, trifluoroacetate] : 50 to 500 nM
Cc1c(Cc2ccc(F)c(C(=O)N3CC(=O)N(c4ccccc4)[C@@H](C)C3)c2)n[nH]c(=O)c1C (single isomer, unassigned) [78 (LL4A)] : 50 to 500 nM
Cc1c(Cc2ccc(F)c(C(=O)N3CCN(C4CCc5ccccc54)C(=O)C3)c2)n[nH]c(=O)c1C (stereo not drawn) [Example 100, trifluoroacetate] : < 50 nM

Report CC50 for each item below.
1. CC[C@H]1CN(C(=O)c2cc(Cc3n[nH]c(=O)c(C)c3C)ccc2F)CC(=O)N1C1CCC1 [Example 181]
2. Cc1c(Cc2ccc(F)c(C(=O)N3CCN(C4CCOCC4)C(=O)C3)c2)n[nH]c(=O)c1C [Example 120, trifluoroacetate]

Return:
1. < 5000 nM
2. < 5000 nM
